src = patent US20070065439A1

biological target: Recombinant human IL-1beta (rhIL-1b) (human, UniProt P01584 117-269); assay: cell-based or functional assay
EXPERIMENTAL READOUT: % IL-6 production, supernatant 1:10 dilut. (%)
Enter your answer as a number in %; do not include the unit.

Look over these answered cases.
>>> value_measured("9.31.1 (antibody, human IgG4, V domains shown, lambda; also called 9.31.3) VH: QVQLVESGGGLVKPGGSLRLSCAASGFTFSDYYMSWIRQAPGKGLEWVSYIRSSGSTIYYADSVKGRFTISRDNAKNSLYLQMNSLRAEDTAVYYCARTPYSGRYHWYFDLWGRGTLVTVS VL: SYELTQPPSVSVSPGQTARITCSGDALPIKYAYWYQHKSGQAPVLVIYEDSKRPSGIPERFSGSSSGTMATLTISGAQVEDEADYYCYSTDSSGNHRVFGGGTKLTVL")
23
>>> value_measured("6.33.1 (antibody, human IgG4, V domains shown, lambda; also called mAb 6.33.1) VH: QVQLVESGGGVVQPGRSLRLSCAASGFTFSVYGMHWVRQAPGKGLEWVAVIWYDGSNKYYADSVKGRFTISRDNSKNTLYLQMNSLRAEDTAVYYCAREKSSGWFFDYWGQGTLVTVSS VL: QSALTQPASVSGSPGQSITISCTGTSSDVGSYNLVSWYQQHPGKAPKLMIYEVSKRPSGISNRFSGSKSGNTASLTISGLQAEDEADYYCCSYAGNSIWVFGGGTKLTVL")
22

// switching to the query binder
# lookup: % IL-6 production, supernatant 1:10 dilut. of 8.18.1 (antibody, human IgG4, V domains shown, lambda; also called mAb 8.18.1) VH: QVQLQESGPGLVKPSETLSLTCTVSGGSVSSGGYYWSWIRQPPGKGLEWIGYFYYSGSPNYNPSLKRRIAISVDTSKNQFSLRLSSVTAADTAVYYCARDPMHYYGMDVWGQGTTVTVSS VL: SSELTQPPSVSVFPGQTANITCSGDKLGDKFACWYQQKPGQSPVLVIYRDNKRPSGIPERFSGSNSGNTATLTISGTQAMDEADYYCQAWDSSTYVVFGGGTKLTVL
3
